- Test system: MCF7
- method.notes: Drug uptake in human MCF7 cells at 0.5 to 1.0 MBq/mL after 1 hr in hypoxic condition by gamma counting
- Assay type: ADME, cell-based
- conditions.used: mcf7, 1 h

{"columns": ["smiles.str", "Drug uptake"],
 "data": [
  ["O=[N+]([O-])c1ncccc1NCc1cn(CC[18F])nn1", "Active"],
  ["O=[N+]([O-])c1cnc(NCc2cn(CC[18F])nn2)s1", "Active"],
  ["O=[N+]([O-])c1nccn1Cc1cn(CC[18F])nn1", "Active"]
]}

---

- method.notes: 1-Octanol-phosphate buffer partition coefficient, log P of the compound at pH 7.4 after 30 mins by shake-flask method
- Type: physicochemical
Below is a list of entries, each paired with its recorded logD at 0.5 h value.

{"columns": ["smiles.str", "logD at 0.5 h"],
 "data": [
  ["O=[N+]([O-])c1cnc(NCc2cn(CCF)nn2)s1", 0.79],
  ["O=[N+]([O-])c1ccnn1Cc1cn(CCF)nn1", 0.03],
  ["O=[N+]([O-])c1ncccc1NCc1cn(CCF)nn1", 0.04],
  ["O=[N+]([O-])c1nccn1Cc1cn(CCF)nn1", -0.41]
]}
